Below, each of the compounds is paired with its reported solubility (g/100 g solution) value.
assayComment: xn = mol fraction of the nth substance listed, in the solute-free solvent
conditionsUsed: 298.15 K; x2 = 0.1436

Answered cases to consult:
| compound | valueMeasured |
| --- | --- |
| Nc1ncc(Br)nc1Br + CCO + O | 0.222 |
| O=C1C=CC(=O)N1c1ccccc1Br + CCO + O | 3.94 |
| O=c1cc(CBr)c2ccccc2[nH]1 + CCO + O | 0.075 |

Inquiry: Give the measured solubility (g/100 g solution) of Nc1cc(-c2ccncc2)c[nH]c1=O + CCO + O .
Reply text: 0.00483

Inquiry: Give the measured solubility (g/100 g solution) of CC(C)C(=O)Nc1ccc([N+](=O)[O-])c(C(F)(F)F)c1 + CCO + O .
Reply text: 0.199

* * *

Below, each of the compounds is paired with its reported solubility (g/100 g solution) value.
assayComment: xn = mol fraction of the nth substance listed, in the solute-free solvent
conditionsUsed: 318.15 K; x2 = 0.04165
Answer with a bare number; do not write a unit.

Answered cases to consult:
| compound | solubility (g/100 g solution) |
| --- | --- |
| O=C1C=CC(=O)N1c1ccccc1Br + CCO + O | 2.98 |
| Nc1cc(-c2ccncc2)c[nH]c1=O + CCO + O | 0.00372 |
| Nc1ncc(Br)nc1Br + CCO + O | 0.0608 |
| CC(C)C(=O)Nc1ccc([N+](=O)[O-])c(C(F)(F)F)c1 + CCO + O | 0.0203 |

Inquiry: Give the measured solubility (g/100 g solution) of O=c1cc(CBr)c2ccccc2[nH]1 + CCO + O .
Reply text: 0.0924

* * *

Below, each of the molecules is paired with its reported solubility (g/100 g solution) value.
assayComment: xn = mol fraction of the nth substance listed, in the solute-free solvent
conditionsUsed: 298.15 K; x2 = 0.4772
Answer with a bare number; do not write a unit.

| molecule | solubility (g/100 g solution) |
| --- | --- |
| O=c1cc(CBr)c2ccccc2[nH]1 + CCO + O | 0.138 |
| O=C1C=CC(=O)N1c1ccccc1Br + CCO + O | 10 |
| Nc1ncc(Br)nc1Br + CCO + O | 0.546 |
| Nc1cc(-c2ccncc2)c[nH]c1=O + CCO + O | 0.0146 |

Inquiry: Give the measured solubility (g/100 g solution) of CC(C)C(=O)Nc1ccc([N+](=O)[O-])c(C(F)(F)F)c1 + CCO + O .
Reply text: 9.49

* * *

Below, each of the compounds is paired with its reported solubility (g/100 g solution) value.
assayComment: xn = mol fraction of the nth substance listed, in the solute-free solvent
conditionsUsed: 288.15 K; x2 = 0.06974
Answer with a bare number; do not write a unit.

| compound | solubility (g/100 g solution) |
| --- | --- |
| O=C1C=CC(=O)N1c1ccccc1Br + CC(C)O + O | 1.35 |
| O=c1cc(CBr)c2ccccc2[nH]1 + CC(C)O + O | 0.0329 |
| O=c1cc(CBr)c2ccccc2[nH]1 + CCCO + O | 0.0464 |
| CC(C)C(=O)Nc1ccc([N+](=O)[O-])c(C(F)(F)F)c1 + CC(C)O + O | 0.0488 |

Okay, now this compound:
Inquiry: Give the measured solubility (g/100 g solution) of Nc1ncc(Br)nc1Br + CC(C)O + O .
Reply text: 0.0548
